# Test system: Escherichia coli TOP10
# experiment: shrunken log2 fold change of peptide-encoding DNA abundance (4.5 h post-induction vs induction); higher = less antimicrobial activity (less host growth inhibition)
# setup_conditions: time post-induction: 4.5 h; library: site-saturation at positions 5, 18, 19, 20
quantity_name: shrunken log2 fold change
# respond with the number and nothing more

Record excerpt, results attached:
- sequence_content: "RRIRLRPPRLPRPRPRPFDWPRP"
  shrunken log2 fold change: -0.133
- sequence_content: "RRIRYRPPRLPRPRPRPRCSPRP"
  shrunken log2 fold change: -0.173

Need shrunken log2 fold change, item "RRIRTRPPRLPRPRPRPYFQPRP" -0.587

Need shrunken log2 fold change, item "RRIRKRPPRLPRPRPRPKNKPRP" 0.287

Need shrunken log2 fold change, item "RRIRCRPPRLPRPRPRPGGPPRP" 0.108

Need shrunken log2 fold change, item "RRIRARPPRLPRPRPRPTIWPRP" 0.206

Need shrunken log2 fold change, item "RRIRYRPPRLPRPRPRPGSYPRP" -0.349

Need shrunken log2 fold change, item "RRIRWRPPRLPRPRPRPLKNPRP" 0.245

Need shrunken log2 fold change, item "RRIRGRPPRLPRPRPRPDREPRP" 0.34

Need shrunken log2 fold change, item "RRIRCRPPRLPRPRPRPWYAPRP" -0.529

Need shrunken log2 fold change, item "RRIRLRPPRLPRPRPRPWVYPRP" 0.0113

Need shrunken log2 fold change, item "RRIRWRPPRLPRPRPRPGLRPRP" 0.53

Need shrunken log2 fold change, item "RRIRPRPPRLPRPRPRPQSCPRP" -0.0478

Need shrunken log2 fold change, item "RRIRLRPPRLPRPRPRPQMLPRP" 0.0385

Need shrunken log2 fold change, item "RRIRDRPPRLPRPRPRPAPNPRP" 0.138

###

# Test system: Escherichia coli TOP10
# experiment: shrunken log2 fold change of peptide-encoding DNA abundance (4.5 h post-induction vs induction); higher = less antimicrobial activity (less host growth inhibition)
# setup_conditions: time post-induction: 4.5 h; library: site-saturation at positions 5, 18, 19, 20
Assign class by shrunken log2 fold change: not lower than 0.2 means true; lower than 0.2 means false.

- sequence_content: "RRIRLRPPRLPRPRPRPLHIPRP"
  assigned_class: "false"
- sequence_content: "RRIRTRPPRLPRPRPRPFDAPRP"
  assigned_class: "false"
- sequence_content: "RRIRIRPPRLPRPRPRPPWWPRP"
  assigned_class: "true"
- sequence_content: "RRIRTRPPRLPRPRPRPCYSPRP"
  assigned_class: "false"
- sequence_content: "RRIRGRPPRLPRPRPRPHIFPRP"
  assigned_class: "true"

Decide: shrunken log2 fold change of "RRIRTRPPRLPRPRPRPKDTPRP" >= 0.2? false

Decide: shrunken log2 fold change of "RRIRCRPPRLPRPRPRPRQPPRP" >= 0.2? true

Decide: shrunken log2 fold change of "RRIRDRPPRLPRPRPRPNCTPRP" >= 0.2? true

Decide: shrunken log2 fold change of "RRIRFRPPRLPRPRPRPWSRPRP" >= 0.2? false

Decide: shrunken log2 fold change of "RRIRQRPPRLPRPRPRPALFPRP" >= 0.2? false

###

# Tested on: Escherichia coli TOP10;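 further: peptides expressed intracellularly from a pBAD plasmid library in pooled LB shake-flask culture, induced with 0.3% L-arabinose, DNA abundance read by NGS, three biological replicates, DESeq2 with apeglm shrinkage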
# experiment: shrunken log2 fold change of peptide-encoding DNA abundance (4.5 h post-induction vs induction); higher = less antimicrobial activity (less host growth inhibition)
# setup_conditions: time post-induction: 4.5 h; library: site-saturation at positions 5, 18, 19, 20
quantity_name: shrunken log2 fold change
# respond with the number and nothing more

Record excerpt, results attached:
- sequence_content: "RRIRERPPRLPRPRPRPFDHPRP"
  quantity_name: "shrunken log2 fold change"
  reading: 0.0195
- sequence_content: "RRIRYRPPRLPRPRPRPAGNPRP"
  quantity_name: "shrunken log2 fold change"
  reading: -0.601
- sequence_content: "RRIRERPPRLPRPRPRPHKMPRP"
  quantity_name: "shrunken log2 fold change"
  reading: -0.701
- sequence_content: "RRIRIRPPRLPRPRPRPWWTPRP"
  quantity_name: "shrunken log2 fold change"
  reading: -0.0807
- sequence_content: "RRIRHRPPRLPRPRPRPFASPRP"
  quantity_name: "shrunken log2 fold change"
  reading: -0.182

// map "RRIRLRPPRLPRPRPRPHQPPRP" to recorded shrunken log2 fold change (system: Escherichia coli TOP10) 0.18

// map "RRIRRRPPRLPRPRPRPHDMPRP" to recorded shrunken log2 fold change (system: Escherichia coli TOP10) -0.103

// map "RRIRNRPPRLPRPRPRPIQHPRP" to recorded shrunken log2 fold change (system: Escherichia coli TOP10) -0.0743

// map "RRIRPRPPRLPRPRPRPEHRPRP" to recorded shrunken log2 fold change (system: Escherichia coli TOP10) 0.0967

// map "RRIRPRPPRLPRPRPRPQSGPRP" to recorded shrunken log2 fold change (system: Escherichia coli TOP10) 0.259

// map "RRIRCRPPRLPRPRPRPIWTPRP" to recorded shrunken log2 fold change (system: Escherichia coli TOP10) -0.0919

// map "RRIRSRPPRLPRPRPRPNCWPRP" to recorded shrunken log2 fold change (system: Escherichia coli TOP10) 0.292

// map "RRIRWRPPRLPRPRPRPNCKPRP" to recorded shrunken log2 fold change (system: Escherichia coli TOP10) -0.0223

// map "RRIRSRPPRLPRPRPRPPLQPRP" to recorded shrunken log2 fold change (system: Escherichia coli TOP10) 0.504

// map "RRIRWRPPRLPRPRPRPAPRPRP" to recorded shrunken log2 fold change (system: Escherichia coli TOP10) 1.12

// map "RRIRFRPPRLPRPRPRPRWCPRP" to recorded shrunken log2 fold change (system: Escherichia coli TOP10) 0.14
